- Tested on: U2OS
- methodSummary: Multiplex assay against U2OS
- Assay type: toxicity, cell-based
- conditions: human, 12 h, 1 µM, compound concentration 1 uM, replicate 1
Consider the following molecules and their measured Population Apoptotic (%) readings.

>  <molecule>
CC(C)(C)c1cnc(CSc2cnc(NC(=O)C3CCNCC3)s2)o1 [BMS-387032]

>  <measuredOn>
U2OS

>  <unitName>
%

>  <Population Apoptotic (%)>
26

$$$$
>  <molecule>
CCc1cc2c(cc1CC)CC(NC[C@H](O)c1ccc(O)c3[nH]c(=O)ccc13)C2 [INDACATEROL]

>  <measuredOn>
U2OS

>  <unitName>
%

>  <Population Apoptotic (%)>
41

$$$$
>  <molecule>
CCOc1cc(N2CCC(O)CC2)ccc1Nc1ncc2c(n1)N(C1CCCC1)CCC(=O)N2C

>  <measuredOn>
U2OS

>  <unitName>
%

>  <Population Apoptotic (%)>
46

$$$$
>  <molecule>
CCOc1cc2ncc(C#N)c(Nc3ccc(OCc4cccc(F)c4)c(Cl)c3)c2cc1NC(=O)/C=C/CN(C)C [HKI-357]

>  <measuredOn>
U2OS

>  <unitName>
%

>  <Population Apoptotic (%)>
58

$$$$

====

- Test system: U2OS
- methodSummary: Multiplex assay against U2OS
- Type: toxicity, cell-based
- conditions: human, 24 h, 1 µM, compound concentration 1 uM, replicate 2

>  <compound>
Cl.Cl.Nc1ncnc2c1c(-c1cccc(OCc3ccccc3)c1)cn2[C@H]1C[C@@H](CN2CCC2)C1

>  <Population Pyknosed Nuclei (%)>
21

$$$$
>  <compound>
CNc1oc(-c2cccc3ccccc23)nc1C#N

>  <Population Pyknosed Nuclei (%)>
3

$$$$
>  <compound>
CNC(=O)c1nn(C)c2c1C(C)(C)Cc1cnc(Nc3ccc(N4CCN(C)CC4)cc3)nc1-2 [MILCICLIB]

>  <Population Pyknosed Nuclei (%)>
18

$$$$
>  <compound>
COc1ccc(NS(=O)(=O)c2sc3ccc(Cl)cc3c2C)cc1N1CCNCC1.Cl

>  <Population Pyknosed Nuclei (%)>
12

$$$$
>  <compound>
Cc1cc2c(cc1N1C(=O)c3cccc4c(CCCO)ccc(c34)C1=O)n(C)c(=O)n2C

>  <Population Pyknosed Nuclei (%)>
5

$$$$

====

- Tested on: U2OS
- methodSummary: Multiplex assay against U2OS
- Assay type: toxicity, cell-based
- conditions: human, 24 h, 10 µM, compound concentration 10 uM, replicate 1
Measured Population Membrane Permeable-Phenotype (%) values are reported for all entries that follow.
resultType: Population Membrane Permeable-Phenotype (%)

>  <compound>
O=C(O)c1ccc2cc(-c3ccc(O)c(C45CC6CC(CC(C6)C4)C5)c3)ccc2c1 [O-DEMETHYLATED ADAPALENE]

>  <measuredOn>
U2OS

>  <experimentalValue>
4%

$$$$
>  <compound>
COc1cc2c(Nc3ccc(NC(=O)c4ccccc4)cc3)ncnc2cc1OCCCN1CCOCC1

>  <measuredOn>
U2OS

>  <experimentalValue>
13%

$$$$
>  <compound>
CC(=O)c1cc(-c2cc(C(=O)NC3CC3)ccc2C)c2ncccn12

>  <measuredOn>
U2OS

>  <experimentalValue>
10%

$$$$
>  <compound>
COc1cc2c(NC3CCN(C(C)C)CC3)nc(N3CCC(F)(F)CC3)nc2cc1OCCCN1CCCC1

>  <measuredOn>
U2OS

>  <experimentalValue>
56%

$$$$
>  <compound>
Cl.Cl.NC1(c2ccc(-c3nc4ccn5c(=O)[nH]nc5c4cc3-c3ccccc3)cc2)CCC1

>  <measuredOn>
U2OS

>  <experimentalValue>
19%

$$$$
>  <compound>
CCn1c(-c2nonc2N)nc2cnc(Oc3cccc(NC(=O)c4ccc(OCCN5CCOCC5)cc4)c3)cc21 [GSK-269962A]

>  <measuredOn>
U2OS

>  <experimentalValue>
52%

$$$$
>  <compound>
CN(C)C/C=C/C(=O)Nc1cc2c(Nc3ccc(F)c(Cl)c3)ncnc2cc1O[C@H]1CCOC1.O=C(O)/C=C\C(=O)O.O=C(O)/C=C\C(=O)O [AFATINIB DIMALEATE]

>  <measuredOn>
U2OS

>  <experimentalValue>
26%

$$$$
>  <compound>
CCOc1cc(N2CCC(O)CC2)ccc1Nc1ncc2c(n1)N(C1CCCC1)CCC(=O)N2C

>  <measuredOn>
U2OS

>  <experimentalValue>
5%

$$$$
